tested on: Klebsiella pneumoniae; test: Antibacterial activity against Klebsiella pneumoniae after 24 hrs by two fold serial dilution technique; assay type: functional
For each entry below, report its MIC value.
One number for each entry, in µg/mL.

Below, 2 compounds whose answers are already recorded.
Compound	Assayed target	MIC / µg/mL
O=C(O)c1cn(C2CC2)c2cc(N3CCNCC3)c(F)cc2c1=O	Klebsiella pneumoniae	25
CC1=C(C(=O)OC(C)C)C(c2ccc(Cl)cc2)NC(=O)N1 (centres undefined)	Klebsiella pneumoniae	50

List the reported MIC of each compound below.
1. COc1ccc(C2NC(=O)NC(C)=C2C(=O)OC(C)C)cc1 (centres undefined)
2. CC1=C(C(=O)OC(C)C)C(c2ccccc2Cl)NC(=O)N1 (centres undefined)
3. CC1=C(C(=O)OC(C)C)C(c2ccccc2)NC(=O)N1 (centres undefined)
4. CC1=C(C(=O)OC(C)C)C(c2ccc(F)cc2)NC(=O)N1 (centres undefined)
5. CC1=C(C(=O)OC(C)C)C(c2ccc(C)cc2)NC(=O)N1 (centres undefined)
6. CC1=C(C(=O)OC(C)C)C(c2ccccc2)NC(=S)N1 (centres undefined)

100
50
200
25
100
100

Please report the recorded MIC for CC1=C(C(=O)OC(C)C)C(c2ccc([N+](=O)[O-])cc2)NC(=O)N1 (centres undefined) .
12.5

====

system: Escherichia coli; experiment: Antibacterial activity against Escherichia coli after 24 hrs by two fold serial dilution technique; format: functional
Outcome measure: MIC (µg/mL)
Answers are plain numbers, in µg/mL.

Compound	Readout units	MIC
CC1=C(C(=O)OC(C)C)C(c2ccc(C)cc2)NC(=O)N1 (stereo unspecified)	µg/mL	100
CC1=C(C(=O)OC(C)C)C(c2ccccc2Cl)NC(=O)N1 (stereo unspecified)	µg/mL	50
COc1ccc(C2NC(=O)NC(C)=C2C(=O)OC(C)C)cc1 (stereo unspecified)	µg/mL	100
CC1=C(C(=O)OC(C)C)C(c2ccc(F)cc2)NC(=O)N1 (stereo unspecified)	µg/mL	25
CC1=C(C(=O)OC(C)C)C(c2ccc(Cl)cc2)NC(=O)N1 (stereo unspecified)	µg/mL	50

Moving on to another compound below.
Could you share what MIC was measured for CC1=C(C(=O)OC(C)C)C(c2ccccc2)NC(=O)N1 (stereo unspecified) , tested on Escherichia coli?
200
